Assay: Pharmacokinetics of D10.1 after PO, SQ and IV dosing in mice
Conditions: female, Balb/C, mouse, plasma, sc, 12.2 mg/kg
Readout Type: CL/F (mL/min)
Please give a number only; it is taken to be in mL/min.

Using known records, supply CL/F for `CC[C@H](C)[C@@H]1NC(=O)[C@@H](CC(C)C)NC(=O)[C@H](CC(C)C)N(C)C(=O)[C@H](Cc2ccccc2)NC(=O)CN(C)C(=O)[C@@H]2CCCN2C(=O)[C@H](C(C)C)NC(=O)[C@H](Cc2ccccc2)N(C)C(=O)[C@H]2CCCN2C(=O)[C@H](CC(C)C)NC1=O`
0.0796
